system: yeast strain GenT01 (FF18984); test: GreenScreen assay (GSA), cytotoxicity: final cell density by absorbance; conditions: solvent in GSA test samples; toxic at higher concentrations
OBSERVED_PROPERTY: Maximum Concentration (% v/v), suggested maximum tolerable solvent concentration
Enter your answer as a number in % v/v; do not include the unit.

In: Name the reported Maximum Concentration (% v/v), suggested maximum tolerable solvent concentration value associated with the compound `CO`
Out: 2

---

tested on: RAD54 promoter-GFP reporter (pGen001); conditions: GenT01 yeast, overnight at 25° C., 2% DMSO diluent, no S9
OBSERVED_PROPERTY: GSA genotoxicity result

Example cases with answers are listed next.
molecule="Nc1nc[nH]n1 [3-amino-1,2,4-triazole]" recorded_measurement=positive
molecule="Clc1ccc(COC(Cn2ccnc2)c2ccc(Cl)cc2Cl)cc1 (stereo not drawn) [econazole]" recorded_measurement=responds
molecule="CC(=O)Nc1ccc2c(c1)Cc1ccccc1-2 [2-acetamidofluorene]" recorded_measurement=negative
molecule="COc1cc([C@@H]2c3cc4c(cc3[C@@H](O[C@@H]3O[C@@H]5CO[C@@H](C)O[C@H]5[C@H](O)[C@H]3O)[C@H]3COC(=O)[C@H]23)OCO4)cc(OC)c1O [etoposide]" recorded_measurement=responds
molecule="Nc1ccccc1 [aniline]" recorded_measurement=negative

Attention now turns to another entry.
In: Name the reported GSA genotoxicity result value associated with the molecule Nc1ccc2cc3ccccc3cc2c1 [2-aminoanthracene]
Out: negative
